# STUDY_TARGET: the molecule itself
# METHOD_NOTES: SEC
stoichiometry N values by entry
MEASUREMENT_NAME: stoichiometry N

* human CAD DHO domain bearing S1538L (domain or fragment, UniProt P27708 1456-1846, looked up, carboxylated lysine K1556) MTSQKLVRLPGLIDVHVHLREPGGTHKEDFASGTAAALAGGITMVCAMPNTRPPIIDAPALALAQKLAEAGARCDFALFLGALSENAGTLGTVAGSAAGLKLYLNETFSELRLDSVVQWMEHFETWPSHLPIVAHAEQQTVAAVLMVAQLTQRSVHICHVARKEEILLIKAAKARGLPVTCEVAPHHLFLSHDDLERLGPGKGEVRPELGSRQDVEALWENMAVIDCFASDHAPHTLEEKCGSRPPPGFPGLETMLPLLLTAVSEGRLSLDDLLQRLHHNPRRIFHLPPQEDTYVEVDLEHEWTIPSHMPFSKAHWTPFEGQKVKGTVRRVVLRGEVAYIDGQVLVPPGYGQDVRKWPQGAVPQLPPSAPATSEMTTTPERPRRGIPGLPD | 2
* human CAD DHO domain bearing W1581R (domain or fragment, UniProt P27708 1456-1846, looked up) MTSQKLVRLPGLIDVHVHLREPGGTHKEDFASGTAAALAGGITMVCAMPNTRPPIIDAPALALAQKLAEAGARCDFALFLGASSENAGTLGTVAGSAAGLKLYLNETFSELRLDSVVQWMEHFETRPSHLPIVAHAEQQTVAAVLMVAQLTQRSVHICHVARKEEILLIKAAKARGLPVTCEVAPHHLFLSHDDLERLGPGKGEVRPELGSRQDVEALWENMAVIDCFASDHAPHTLEEKCGSRPPPGFPGLETMLPLLLTAVSEGRLSLDDLLQRLHHNPRRIFHLPPQEDTYVEVDLEHEWTIPSHMPFSKAHWTPFEGQKVKGTVRRVVLRGEVAYIDGQVLVPPGYGQDVRKWPQGAVPQLPPSAPATSEMTTTPERPRRGIPGLPD | 2
* human CAD dihydroorotase (DHO) domain, wild type (domain or fragment, UniProt P27708 1456-1846, looked up, carboxylated lysine K1556) MTSQKLVRLPGLIDVHVHLREPGGTHKEDFASGTAAALAGGITMVCAMPNTRPPIIDAPALALAQKLAEAGARCDFALFLGASSENAGTLGTVAGSAAGLKLYLNETFSELRLDSVVQWMEHFETWPSHLPIVAHAEQQTVAAVLMVAQLTQRSVHICHVARKEEILLIKAAKARGLPVTCEVAPHHLFLSHDDLERLGPGKGEVRPELGSRQDVEALWENMAVIDCFASDHAPHTLEEKCGSRPPPGFPGLETMLPLLLTAVSEGRLSLDDLLQRLHHNPRRIFHLPPQEDTYVEVDLEHEWTIPSHMPFSKAHWTPFEGQKVKGTVRRVVLRGEVAYIDGQVLVPPGYGQDVRKWPQGAVPQLPPSAPATSEMTTTPERPRRGIPGLPD | 2
* human CAD DHO domain bearing H1687R (domain or fragment, UniProt P27708 1456-1846, looked up) MTSQKLVRLPGLIDVHVHLREPGGTHKEDFASGTAAALAGGITMVCAMPNTRPPIIDAPALALAQKLAEAGARCDFALFLGASSENAGTLGTVAGSAAGLKLYLNETFSELRLDSVVQWMEHFETWPSHLPIVAHAEQQTVAAVLMVAQLTQRSVHICHVARKEEILLIKAAKARGLPVTCEVAPHHLFLSHDDLERLGPGKGEVRPELGSRQDVEALWENMAVIDCFASDRAPHTLEEKCGSRPPPGFPGLETMLPLLLTAVSEGRLSLDDLLQRLHHNPRRIFHLPPQEDTYVEVDLEHEWTIPSHMPFSKAHWTPFEGQKVKGTVRRVVLRGEVAYIDGQVLVPPGYGQDVRKWPQGAVPQLPPSAPATSEMTTTPERPRRGIPGLPD | 2
